- System: HeLa
- assay: Proliferation assay (crystal violet), HeLa
- Assay type: cell-based
- applied conditions: Homo sapiens, HeLa, 96 h, HeLa cells; 4 days incubation; crystal violet staining; read-out: IC50 inhibition of proliferation, HeLa
- Procedure: Cultivated tumor cells (cells were ordered from ATCC, except HeLa-MaTu and HeLa-MaTu-ADR, which were ordered from EPO-GmbH, Berlin) were plated at a density of 1000 to 5000 cells/well, depending on the growth rate of the respective cell line, in a 96-well multititer plate in 200 μL of their respective growth medium supplemented 10% fetal calf serum. […] Absorbtion was determined by photometry at a wavelength of 595 nm. […] The IC50 values were determined by means of a 4 parameter fit.
pIC50: −log10 of the molar value.
metric name: pIC50

Worked cases, pIC50 given:
{"compound": "Cc1nsc(Nc2cnc3ccccc3n2)c1C(=O)Nc1ccc(N2CCN(C(=O)OC(C)(C)C)CC2)nc1 [Example 248]", "value observed": 5.51}
{"compound": "Cc1nsc(Nc2cnc(C(F)(F)F)cn2)c1C(=O)Nc1ccc(OC[C@@H]2CCN(CC(F)F)C2)nc1 [Example 127]", "value observed": 6.34}
{"compound": "Cc1nsc(Nc2cnc(C(F)(F)F)cn2)c1C(=O)Nc1ccc(OCCCN(C)CCC(F)(F)F)nc1 [Example 355]", "value observed": 6.48}
{"compound": "Cc1nsc(Nc2cnc3ccccc3n2)c1C(=O)Nc1cccc(C(=O)N2CCN(C(=O)OC(C)(C)C)CC2)c1 [Example 55]", "value observed": 5.00}

[P] Cc1nsc(Nc2cnc(C(F)(F)F)cn2)c1C(=O)Nc1ccc(C(=O)N2CCN(CC(F)(F)F)CC2)cc1 [Example 260]
[Q] Cc1nsc(Nc2cnc(C(F)(F)F)cn2)c1C(=O)Nc1ccc(F)c(OCC2CCN(CCC(F)(F)F)CC2)c1 [Example 311]
[R] Cc1nsc(Nc2cnc(C(F)(F)F)cn2)c1C(=O)Nc1ccc(O[C@@H]2CCN(CC(F)(F)F)C[C@@H]2F)nc1 [Example 138]
Put the entries in order of pIC50, starting with the largest number. Your reply should list the labels following the order given in the request.
R, Q, P

###

- System: NCI-H460
- assay: Proliferation assay (crystal violet), NCI-H460
- Assay type: cell-based
- applied conditions: Homo sapiens, 96 h; NCI-H460 cells; 4 days incubation; crystal violet staining; read-out: IC50 inhibition of proliferation, NCI-H460
metric name: IC50 (nM)

Worked cases, IC50 given:
{"compound": "Cc1nsc(Nc2cnc3ccccc3n2)c1C(=O)Nc1ccc(OC2CCN(C(=O)OC(C)(C)C)CC2)nc1", "measurement unit": "nM", "IC50": 640}
{"compound": "Cc1nsc(Nc2cnc3ccccc3n2)c1C(=O)Nc1ccc(OC2CCCN(C(=O)OC(C)(C)C)C2)nc1 (stereo not drawn)", "measurement unit": "nM", "IC50": 730}
{"compound": "Cc1nsc(Nc2ccc(C#N)cn2)c1C(=O)Nc1ccc(OC2CCN(CC(F)(F)F)CC2)nc1", "measurement unit": "nM", "IC50": 310}
{"compound": "Cc1nsc(Nc2cnc3ccccc3n2)c1C(=O)Nc1ccc(OC2CCN(CC(F)(F)F)CC2)nc1", "measurement unit": "nM", "IC50": 750}
{"compound": "Cc1nsc(Nc2cnc3ccccc3n2)c1C(=O)Nc1ccc(Oc2cccc(C(F)(F)F)c2)nc1", "measurement unit": "nM", "IC50": 300}
{"compound": "Cc1nsc(Nc2cnc(C(F)(F)F)cn2)c1C(=O)Nc1ccc(OC2CCN(CC(F)(F)F)CC2)nc1", "measurement unit": "nM", "IC50": 98}
{"compound": "Cc1nsc(Nc2cnc(C(F)(F)F)cn2)c1C(=O)Nc1ccc(OC2CCN(C(=O)OC(C)(C)C)CC2)nc1", "measurement unit": "nM", "IC50": 250}
{"compound": "Cc1nsc(Nc2cnc(C(F)(F)F)cn2)c1C(=O)Nc1ccc(OCC2CCN(C(=O)OC(C)(C)C)C2)nc1 (stereo not drawn)", "measurement unit": "nM", "IC50": 230}

[A] Cc1nsc(Nc2ccc(C#N)cn2)c1C(=O)Nc1ccc(OC2CCCN(CC(F)F)C2)nc1 (stereo not drawn)
[B] Cc1nsc(Nc2cnc(C(F)(F)F)cn2)c1C(=O)Nc1ccc(OC2CCN(CC(F)F)CC2)nc1
[C] Cc1nsc(Nc2ccc(C#N)cn2)c1C(=O)Nc1ccc(OC2CCN(C(=O)OC(C)(C)C)CC2)nc1
[D] Cc1nsc(Nc2cnc3ccccc3n2)c1C(=O)Nc1cccc(C(=O)OC(C)(C)C)c1
[E] Cc1nsc(Nc2cnc(C(F)(F)F)cn2)c1C(=O)Nc1ccc(OC2CCN(CCC(F)(F)F)CC2)nc1
Would you mind ranking these compounds by ascending IC50? Your reply should list the labels following the order given in the request.
B, E, C, D, A
(B: 100 nM, E: 170 nM, C: 280 nM, D: 460 nM, A: 990 nM)
